The measured values listed here are drawn from paper PMC5061317.

tested on: canine PXR; assay: Canine PXR transactivation assay (HepG2 transiently transfected, CYP3A4 luciferase reporter); details: read-out: EC50, canine PXR activation; dose-response 0.1 to 30 μM, 48 h, nonlinear regression

[
  {
    "compound": "CCOP(=O)(OCC)C(=Cc1cc(C(C)(C)C)c(O)c(C(C)(C)C)c1)P(=O)(OCC)OCC [SR12813]",
    "EC50 (µM)": 1.9
  }
]

----------
target: rat PXR (Rattus norvegicus, UniProt Q9R1A7); test: Rat PXR transactivation assay (rPXR stable cell line, CYP3A4 luciferase reporter); details: read-out: EC50, rat PXR activation; dose-response curve, 48 h, nonlinear regression
Sequence (Q9R1A7 whole entry): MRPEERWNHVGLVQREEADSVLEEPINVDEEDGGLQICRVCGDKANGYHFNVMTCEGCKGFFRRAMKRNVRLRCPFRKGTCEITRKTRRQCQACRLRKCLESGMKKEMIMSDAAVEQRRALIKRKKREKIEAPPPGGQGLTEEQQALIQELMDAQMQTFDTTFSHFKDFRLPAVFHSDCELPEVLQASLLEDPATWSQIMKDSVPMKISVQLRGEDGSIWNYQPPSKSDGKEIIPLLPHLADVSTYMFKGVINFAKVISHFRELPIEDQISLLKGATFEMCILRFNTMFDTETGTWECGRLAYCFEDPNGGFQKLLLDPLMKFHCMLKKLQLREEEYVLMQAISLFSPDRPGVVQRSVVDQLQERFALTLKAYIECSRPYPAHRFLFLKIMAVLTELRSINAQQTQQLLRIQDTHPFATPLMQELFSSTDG

[
  {
    "compound": "CC(=O)[C@H]1[C@H](C#N)C[C@H]2[C@@H]3CC=C4C[C@@H](O)CC[C@]4(C)[C@H]3CC[C@@]21C [Pregnenolone 16α carbonitrile, pregnenolone-16 α -carbonitrile]",
    "quantity_unit": "µM",
    "EC50": 0.14
  }
]
